Provenance of the data: patent US9926529B2

Tested on: hPSC-NSCs
Experiment: RT-PCR expression of dopamine neuron genes in hPSC-NSCs treated with small molecule hits
Type: cell-based, human
Conditions: Homo sapiens, Neuron, 336 h; hPSC-NSCs primed 7 days with Purmorphamine and FGF8, small molecule 2.5 μM for two weeks; read-out: DDC (AADC) expression by RT-PCR
Counter-ions that a name gives are not always drawn.
// values below are reported fold induction at 2.5 µM
Reply: number alone, nothing else.

Completed entries (count: 7):
compound	fold induction at 2.5 µM
FC(F)(F)c1cccc(-c2noc(-c3cc(-c4ccccc4)c(C(F)(F)F)s3)n2)c1	68.3
C/C=C1\C(=O)C[C@H]2[C@@H]3CCC4=CC(=O)CC[C@]4(C)[C@H]3CC[C@]12C	9.82
O=C(CCCN1CCC2(CC1)C(=O)NCN2c1ccccc1)c1ccc(F)cc1 [Spiperone hydrochloride]	13.1
c1cc(Cc2cnc[nH]2)ccn1 [Immethridine dihydrobromide]	28.2
CCN1CCC[C@H]1CNC(=O)c1c(OC)ccc(Br)c1OC [Remoxipride hydrochloride]	13.8
O=C(O)c1cc(=O)c2ccccc2[nH]1	37.5
O=S(=O)(c1cccc2cnccc12)N1CCCNCC1 [Fasudil hydrochloride]	32.4

From here, focus on the item given below.
Exam item: Give its fold induction at 2.5 µM value. Item: O=C1N(c2ccccc2)c2ccccc2C1(Cc1ccncc1)Cc1ccncc1 [Linopirdine dihydrochloride]
Marked response: 7.02
